- Tested on: A549 (lung alveolar adenocarcinoma)
- experiment: MTT antiproliferative assay, A549
- Assay type: cell-based, human
- stated conditions: Homo sapiens, 72 h
- Method: Antiproliferative activity of some compounds was evaluated on cell cultures derived from MDA-MB-231 (triple negative human breast carcinoma). […] This finding allowed us to further investigate the antiproliferative activity of selected compounds on additional tumor cell lines. […] The antiproliferative activity of single diastereomers of some nitriles 4 and the amide cis-6m were assessed on multiple human cancer cell lines via the MTT assay. […]
reported property: IC50 (µM)
Write the number in µM without appending the unit.

COc1ccc(C2=N[C@@H](C#N)[C@@H](c3ccccc3)C2)cc1 (racemic) [cis-4e]    341
COc1cc(O)c(C2=N[C@@H](C(N)=O)[C@@H](c3ccc(C)c(F)c3)C2)c(OC)c1 [cis-6m]    136
COc1cc(O)c(C2=N[C@@H](C#N)[C@H](c3ccc(C)c(F)c3)C2)c(OC)c1 (racemic) [trans-4m]    32.2

Query :: Which measured IC50 belongs to N#C[C@@H]1N=C(c2ccccc2)C[C@@H]1c1cccnc1 (racemic) [cis-4h] , tested on A549 (lung alveolar adenocarcinoma)?
Result :: 311

Query :: Also, Cc1ccc(C2=N[C@@H](C#N)[C@H](c3ccccc3)C2)cc1 (relative stereo) [trans-4k] please.
Result :: 11.7

Query :: Also, Cc1ccc(C2=N[C@@H](C#N)[C@@H](c3ccccc3)C2)cc1 (racemic) [cis-4k] please.
Result :: 82.2

Source of measurements: paper PMC11990662
